# Subject of test: T1, Cynomolgus monkey PD-1-His protein (AcroBiosystems, # PD1-05223) (cynomolgus monkey, UniProt B0LAJ3 25-170)
# T1 construct: Bought reagent, coated on the ELISA plate; also called cynomolgus monkey PD-1 protein
# Test details: ELISA, plate-coated cynomolgus monkey PD-1-His

| Binder | OD Maximum |
| --- | --- |
| PR002479 (antibody, human IgG1, V domains shown, Heavy-chain-only antibody (HCAb), human IgG1 Fc; two heavy chains, no light chain; also called R4004P551D6) VH: EVQLVETGGGLIQPGGSLRLSCAASGFNVSSHYMSWVRQAPGKGLEWVSIIHSGGSTYYADSVKGRFTISRDNSKNRLYLQMNSLRAEDTAVYYCARATAVAEENGYNYPFNYWGQGTLVTVSS | 2.88 |
| PR002474 (antibody, human IgG1, V domains shown, Heavy-chain-only antibody (HCAb), human IgG1 Fc; two heavy chains, no light chain; also called R4004P547D3) VH: EVQLVETGGGLIQPGGSLRLSCAASGFNVSSHYMSWVRQAPGKGLEWVSIIHSGGSTYYADSVKGRFTISRDNSKNRLYLQMNSLRADDTAVYYCARATAVAEKNGYNYPFNYWGQGTLVTVSS | 2.89 |
| PR000150 (pembrolizumab analog) (antibody, human IgG4 S228P, kappa, V domains shown, Anti-PD-1 positive control; also called positive control antibody pembrolizumab) VH: QVQLVQSGVEVKKPGASVKVSCKASGYTFTNYYMYWVRQAPGQGLEWMGGINPSNGGTNFNEKFKNRVTLTTDSSTTTAYMELKSLQFDDTAVYYCARRDYRFDMGFDYWGQGTTVTVSS VL: EIVLTQSPATLSLSPGERATLSCRASKGVSTSGYSYLHWYQQKPGQAPRLLIYLASYLESGVPARFSGSGSGTDFTLTISSLEPEDFAVYYCQHSRDLPLTFGGGTKVEIKR | 2.86 |
| PR002476 (antibody, human IgG1, V domains shown, Heavy-chain-only antibody (HCAb), human IgG1 Fc; two heavy chains, no light chain; also called R4004P547H11) VH: EVQLVETGGGLIQPGGSLRLSCAASGFNVSSHYMSWVRQAPGKGLEWVSIIHSGGSTYYADSVKGRFTISRDNSKNRLYLQMNSLRAEDTAVYYCARATAVAEKNGYNYPFNYWGQGTLVTVSS | 2.7 |
| PR002481 (antibody, human IgG1, V domains shown, Heavy-chain-only antibody (HCAb), human IgG1 Fc; two heavy chains, no light chain; also called R4004P556D1; anti-PD1 R4004P556D1 HCAb hG1) VH: EVQLVETGGGLIQPGGSLRLSCAASGFNVSSHYMSWVRQAPGKGREWVSIIDGGGSTYYADSVKGRFTISRDNSKNRLYLQMNSLRAEDTAMYYCARATAVAEKNGYNYPFNYWGQGTLVTVSS | 3.06 |
